subject of test: NR1/NR2A (Homo sapiens (Human), UniProt Q05586+Q12879)
Sequence (Q12879 23-1464, other chains not shown): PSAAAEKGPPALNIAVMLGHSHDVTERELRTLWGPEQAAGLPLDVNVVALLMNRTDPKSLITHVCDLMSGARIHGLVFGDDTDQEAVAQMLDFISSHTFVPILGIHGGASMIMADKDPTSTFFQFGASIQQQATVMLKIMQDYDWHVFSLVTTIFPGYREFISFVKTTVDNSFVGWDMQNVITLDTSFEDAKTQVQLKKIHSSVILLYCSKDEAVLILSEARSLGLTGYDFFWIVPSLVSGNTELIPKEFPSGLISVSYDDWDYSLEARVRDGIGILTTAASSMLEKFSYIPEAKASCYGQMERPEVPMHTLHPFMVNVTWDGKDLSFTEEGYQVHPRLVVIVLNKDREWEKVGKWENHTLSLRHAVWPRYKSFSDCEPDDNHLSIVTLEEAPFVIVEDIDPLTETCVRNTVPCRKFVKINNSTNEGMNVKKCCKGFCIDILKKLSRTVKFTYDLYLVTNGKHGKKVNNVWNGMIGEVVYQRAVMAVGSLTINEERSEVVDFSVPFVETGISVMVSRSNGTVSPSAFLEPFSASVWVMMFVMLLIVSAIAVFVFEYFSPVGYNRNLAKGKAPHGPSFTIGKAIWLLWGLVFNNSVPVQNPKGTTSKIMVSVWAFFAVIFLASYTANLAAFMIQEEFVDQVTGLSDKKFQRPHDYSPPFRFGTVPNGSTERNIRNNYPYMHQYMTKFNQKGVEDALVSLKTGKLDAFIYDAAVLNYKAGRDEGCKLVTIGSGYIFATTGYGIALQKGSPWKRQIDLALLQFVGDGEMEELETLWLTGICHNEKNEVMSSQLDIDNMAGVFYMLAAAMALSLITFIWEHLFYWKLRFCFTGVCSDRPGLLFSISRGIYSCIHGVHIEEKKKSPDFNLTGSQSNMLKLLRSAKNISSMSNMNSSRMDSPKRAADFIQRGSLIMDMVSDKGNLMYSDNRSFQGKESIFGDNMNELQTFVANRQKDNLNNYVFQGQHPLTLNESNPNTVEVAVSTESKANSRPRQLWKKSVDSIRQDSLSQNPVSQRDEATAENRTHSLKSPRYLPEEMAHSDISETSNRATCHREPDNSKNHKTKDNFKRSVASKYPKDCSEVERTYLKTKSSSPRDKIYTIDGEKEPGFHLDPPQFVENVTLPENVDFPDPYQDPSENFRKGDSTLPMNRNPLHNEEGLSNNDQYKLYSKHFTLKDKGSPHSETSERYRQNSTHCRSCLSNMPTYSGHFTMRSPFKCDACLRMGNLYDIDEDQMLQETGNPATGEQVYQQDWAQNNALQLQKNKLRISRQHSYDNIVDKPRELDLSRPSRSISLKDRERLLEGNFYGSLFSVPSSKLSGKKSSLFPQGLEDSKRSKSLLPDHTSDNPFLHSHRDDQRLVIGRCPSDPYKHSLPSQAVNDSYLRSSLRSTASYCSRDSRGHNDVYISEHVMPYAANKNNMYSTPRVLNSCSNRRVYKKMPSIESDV
protocol: FDSS Ca2+ influx inhibition assay in HEK293 cells expressing NR1/NR2A
Assay type: cell-based
protocol conditions: 3 μM glutamate, 3 μM glycine, 1 mM Ca2+, read-out: Binned Activity
pIC50: −log10 of the molar value.
parameter: pIC50

Study these solved cases before continuing.
substance smiles | result
O=C(NCc1cccs1)c1ccc(CNS(=O)(=O)c2ccc(F)c(Cl)c2)nn1 | < 5.00
Cc1ncc(CNC(=O)c2cnc(CNS(=O)(=O)c3ccc(F)c(Cl)c3)c(C(F)(F)F)n2)s1 | 6.00 to 7.00

We next turn to a different compound, shown below.
According to the records, this compound "Cc1ncc(CNC(=O)c2ccc(CNS(=O)(=O)c3ccc(Cl)c4nonc34)cn2)s1" displays pIC50 of < 5.00

---

subject of test: NR1/NR2A (Homo sapiens (Human), UniProt Q05586+Q12879)
protocol: FDSS Ca2+ influx inhibition assay in HEK293 cells expressing NR1/NR2A
Format: cell-based
protocol conditions: 3 μM glutamate, 3 μM glycine, 1 mM Ca2+, read-out: Binned Activity
parameter: IC50

Study these solved cases before continuing.
compound | IC50
O=C(NCc1ccccn1)c1ccc(CNS(=O)(=O)c2ccc(F)c(Cl)c2)nn1 | > 10 µM
Cc1cc(CNC(=O)c2cnc(CNS(=O)(=O)c3ccc(F)c(Cl)c3)cn2)n(C)n1 | > 10 µM
Cc1ncc(CNC(=O)c2ccc(CNC(=O)c3cccc(C#N)c3)cn2)s1 | > 10 µM
Cc1ncc(CNC(=O)c2cnc(CNS(=O)(=O)c3cccc(Cl)c3)c(C)n2)s1 | < 0.1 µM
CC(NC(=O)c1ccc(CNS(=O)(=O)c2ccc(F)c(Cl)c2)cn1)c1ccco1 (stereo not drawn) | 1 to 10 µM
Cc1ncc(CNC(=O)c2ccc(CNC(=O)c3cc(Cl)ccc3F)cn2)s1 | > 10 µM

According to the records, this compound "O=C(NCc1ccncc1)c1ccc(CNS(=O)(=O)c2ccc(F)c(Cl)c2)nn1" displays IC50 of > 10 µM

---

subject of test: NR1/NR2A (Homo sapiens (Human), UniProt Q05586+Q12879)
protocol: FDSS Ca2+ influx inhibition assay in HEK293 cells expressing NR1/NR2A
Type: cell-based
protocol conditions: 3 μM glutamate, 3 μM glycine, 1 mM Ca2+, read-out: Binned Activity
IC50 values by entry

Study these solved cases before continuing.
substance smiles | result
O=C(NCc1ncccn1)c1ccc(CNS(=O)(=O)c2ccc(F)c(Cl)c2)cn1 | > 10 µM
O=C(NCc1ccncc1)c1ccc(CNS(=O)(=O)c2ccc(F)c(Cl)c2)nc1 | > 10 µM
Cn1nccc1CNC(=O)c1cnc(CNS(=O)(=O)c2ccc(F)c(Cl)c2)cn1 | > 10 µM

We next turn to a different compound, shown below.
According to the records, this compound "Cc1ncc(CNC(=O)c2ccc(CNS(=O)(=O)c3ccc(Cl)nc3Cl)cn2)s1" displays IC50 of > 10 µM

---

subject of test: NR1/NR2A (Homo sapiens (Human), UniProt Q05586+Q12879)
protocol: FDSS Ca2+ influx inhibition assay in HEK293 cells expressing NR1/NR2A
Assay type: cell-based
protocol conditions: 3 μM glutamate, 3 μM glycine, 1 mM Ca2+, read-out: Binned Activity
Procedure: Cell Culture and plating: HEK293 cells expressing NR1/NR2A (Chantest, Cleveland, Ohio) were grown to 70-80% confluency as an adherent monolayer in standard tissue culture flasks at 37° C., 5% CO2 per supplier's instructions. After induction, cell culture medium was removed and cells were rinsed once with Ca^2+ and Mg^2+-free Dulbecco's phosphate buffered saline. […] Following two washes in Ca^2+/Mg^2+-free HBSS with 20 mM HEPES (HHnoCa), cells were counted and viability assessed using trypan blue. […]
parameter: IC50

substance smiles | result
CN(C)CCNC(=O)c1ccc(CNS(=O)(=O)c2ccc(F)c(Cl)c2)nc1 | > 10 µM
O=C(NCc1cccnc1)c1ccc(CNS(=O)(=O)c2ccc(F)c(Cl)c2)cn1 | 0.1 to 1 µM
O=C(NCc1nccs1)c1cnc(CNS(=O)(=O)c2ccc(F)c(Cl)c2)cn1 | > 10 µM

We next turn to a different compound, shown below.
According to the records, this compound "O=C(NCc1ncccn1)c1ccc(CNS(=O)(=O)c2ccc(F)c(Cl)c2)nc1" displays IC50 of > 10 µM

---

subject of test: NR1/NR2A (Homo sapiens (Human), UniProt Q05586+Q12879)
protocol: FDSS Ca2+ influx inhibition assay in HEK293 cells expressing NR1/NR2A
Assay type: cell-based
protocol conditions: 3 μM glutamate, 3 μM glycine, 1 mM Ca2+, read-out: Binned Activity
Description: Cell Culture and plating: HEK293 cells expressing NR1/NR2A (Chantest, Cleveland, Ohio) were grown to 70-80% confluency as an adherent monolayer in standard tissue culture flasks at 37° C., 5% CO2 per supplier's instructions. After induction, cell culture medium was removed and cells were rinsed once with Ca^2+ and Mg^2+-free Dulbecco's phosphate buffered saline. […] Following two washes in Ca^2+/Mg^2+-free HBSS with 20 mM HEPES (HHnoCa), cells were counted and viability assessed using trypan blue. […]
pIC50: −log10 of the molar value.
pIC50 values by entry

Study these solved cases before continuing.
substance smiles | parameter | result
O=C(NCc1cnco1)c1ccc(CNS(=O)(=O)c2ccc(F)c(Cl)c2)cn1 | pIC50 | 5.00 to 6.00
Cc1ncc(CNC(=O)c2ccc(CNS(=O)(=O)c3cc4ccccc4s3)cn2)s1 | pIC50 | < 5.00
Cc1ncc(CNC(=O)c2cnc(CNS(=O)(=O)c3ccc(F)cc3)cn2)s1 | pIC50 | 5.00 to 6.00
O=C(NCc1cncnc1)c1ccc(CNS(=O)(=O)c2ccc(F)c(Cl)c2)nc1 | pIC50 | < 5.00
Cc1ccc(CNC(=O)c2ccc(CNS(=O)(=O)c3ccc(F)c(Cl)c3)nc2)n1C | pIC50 | < 5.00

According to the records, this compound "Cc1ccncc1CNC(=O)c1ccc(CNS(=O)(=O)c2ccc(F)c(Cl)c2)cn1" displays pIC50 of 6.00 to 7.00

According to the records, this compound "Cc1cccc(CNC(=O)c2ccc(CNS(=O)(=O)c3ccc(F)c(Cl)c3)nc2)n1" displays pIC50 of < 5.00

According to the records, this compound "Cn1cccc1CNC(=O)c1ccc(CNS(=O)(=O)c2ccc(F)c(Cl)c2)nc1" displays pIC50 of < 5.00

According to the records, this compound "O=C(NCc1cncnc1)c1ccc(CNS(=O)(=O)c2ccc(F)c(Cl)c2)cn1" displays pIC50 of 5.00 to 6.00

According to the records, this compound "Cn1ccnc1CNC(=O)c1ccc(CNS(=O)(=O)c2ccc(F)c(Cl)c2)nc1" displays pIC50 of 6.00 to 7.00
